target: dN-SARM1 protein (Homo sapiens); construct: the N-terminal mitochondrial localization signal peptide of SARM1 was removed; assay: In vitro biochemical assay for inhibiting SARM1 enzymatic activity (% inhibition rate), PC6 fluorescence method; conditions: 20 μM compound; 50 μM NAD, 50 μM PC6, 50 μM NMN activator
Sequence (Q6SZW1 28-724): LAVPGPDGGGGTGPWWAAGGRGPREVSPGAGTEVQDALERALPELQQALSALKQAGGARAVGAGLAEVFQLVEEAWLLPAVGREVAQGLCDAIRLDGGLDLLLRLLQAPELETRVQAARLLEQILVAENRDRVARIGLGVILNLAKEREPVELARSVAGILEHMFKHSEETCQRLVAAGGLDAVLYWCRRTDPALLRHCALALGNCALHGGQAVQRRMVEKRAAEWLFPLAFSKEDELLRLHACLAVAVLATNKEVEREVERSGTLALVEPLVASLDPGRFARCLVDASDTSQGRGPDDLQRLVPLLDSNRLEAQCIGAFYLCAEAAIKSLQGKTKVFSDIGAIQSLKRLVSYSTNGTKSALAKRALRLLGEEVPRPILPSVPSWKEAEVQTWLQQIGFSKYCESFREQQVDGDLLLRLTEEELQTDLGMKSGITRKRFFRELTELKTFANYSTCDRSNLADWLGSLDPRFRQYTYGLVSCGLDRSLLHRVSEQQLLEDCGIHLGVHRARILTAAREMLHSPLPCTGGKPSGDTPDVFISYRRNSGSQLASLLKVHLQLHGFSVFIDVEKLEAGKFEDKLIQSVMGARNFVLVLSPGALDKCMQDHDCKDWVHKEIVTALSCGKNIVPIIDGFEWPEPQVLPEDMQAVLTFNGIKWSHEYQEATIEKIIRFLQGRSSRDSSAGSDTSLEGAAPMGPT
MEASURED_QUANTITY: inhibition at 20 µM

Past entries and their recorded results:
CN(C(=O)OC(C)(C)C)c1ccc2ncc(-c3cccc(NC(=O)C4CCOCC4)c3)n2c1 :: > 90%
Brc1cnc2ccc(N3CCOCC3)cn12 :: > 90%
COCCOCC(=O)Nc1cccc(-c2cnc3ccc(NC(=O)C(C)(C)C)cn23)c1 :: > 90%
CNc1ccc2ncc(-c3cccc(NC(=O)COCCOCCOCC(=O)Nc4cccc(-c5cnc6ccc(NC)cn56)c4)c3)n2c1 :: > 90%
CN(C(=O)OC(C)(C)C)c1ccc2ncc(-c3cccc(NC(=O)C4CCOC4)c3)n2c1 (centres unmarked) :: > 90%

Task: Please give the measured inhibition at 20 µM for this molecule: CN(C(=O)OC(C)(C)C)c1ccc2ncc(-c3ccc(N)cc3)n2c1
Result: > 90%
